- Test system: GS4.1 cells
- TEST: Cytotoxicity evaluation in GS4.1 cells (Cell Titer 96 AQueous One Solution Cell Proliferation Assay)
- Type: cell-based
- EXPERIMENTAL_CONTEXT: cellular viability, treated as in replicon assay, read-out: HCV Replicon CC50
PARAMETER_MEASURED: CC50

Q: Field request: CC50 | item: CCOC(=O)[C@@H](CC(C)C)NP(=O)(N[C@H](CC(C)C)C(=O)OCC)OC[C@H]1O[C@@H](n2cnc3c(OC)nc(N)nc32)C(C)(O)C1O (stereo partly shown)
A: ≤ 75 µM

----------
- TEST: Cytotoxicity evaluation in GS4.1 cells (Cell Titer 96 AQueous One Solution Cell Proliferation Assay)
- Type: cell-based
- EXPERIMENTAL_CONTEXT: human, cellular viability, treated as in replicon assay, read-out: HCV Replicon CC50
For each record, write down the corresponding CC50 at 72 h.

Q: Field request: CC50 at 72 h | item: CCOC(=O)C(NP(=O)(NC(C(=O)OCC)C(C)C)OC[C@H]1O[C@@H](n2cnc3c(NC4CC4)nc(N)nc32)C(C)(O)C1O)C(C)C (stereo partly drawn) [Compound 70]
A: > 75 µM

Q: Field request: CC50 at 72 h | item: CCOC(=O)[C@H](Cc1ccccc1)NP(=O)(N[C@@H](Cc1ccccc1)C(=O)OCC)OC[C@H]1O[C@@H](n2cnc3c(N4CCCC4)nc(N)nc32)C(C)(O)C1O (stereo partly drawn) [Compound 69]
A: ≤ 75 µM

Q: Field request: CC50 at 72 h | item: C#CC1(F)C(O)[C@@H](COP(=O)(N[C@@H](CC(C)C)C(=O)OCC)N[C@H](CC(C)C)C(=O)OCC)O[C@H]1n1cnc2c(NC3CC3)nc(N)nc21 (stereo partly drawn) [Compound 81]
A: ≤ 75 µM

Q: Field request: CC50 at 72 h | item: C#CC1(F)C(O)[C@@H](COP(=O)(NCC(=O)OCC)NCC(=O)OCC)O[C@H]1n1cnc2c(=O)[nH]c(N)nc21 (stereo partly drawn) [Compound 48]
A: > 75 µM

Q: Field request: CC50 at 72 h | item: CCOC(=O)[C@H](Cc1ccccc1)NP(=O)(N[C@@H](Cc1ccccc1)C(=O)OCC)OC[C@H]1O[C@@H](n2cnc3c(NC4CC4)nc(N)nc32)[C@@](C)(O)C1O (stereo partly drawn) [Compound 32]
A: > 75 µM

Q: Field request: CC50 at 72 h | item: CCOC(=O)[C@@H](NP(=O)(N[C@H](C(=O)OCC)C(C)C)OC[C@H]1O[C@@H](n2cnc3c(N4CCOCC4)nc(N)nc32)C(C)(O)C1O)C(C)C (stereo partly drawn) [Compound 72]
A: > 75 µM

From: patent US9243025B2
